Exercise: state measured CC50 at 72 h for each of the compounds provided.
Assay: Cytotoxicity against human HuH7 cells after 3 days
Assay type: cell-based, Huh-7

Prompt: What does the data say about its CC50 at 72 h? Entry: COc1nc(N)nc2c1ncn2[C@@H]1O[C@H](COP(=O)(N[C@@H](C)C(=O)OCc2ccccc2)N[C@@H](C)C(=O)OCC(C)(C)C)[C@@H](O)[C@@]1(C)O (mixture of isomers)
Completion: > 100 µM

Prompt: Tell me the measured CC50 at 72 h of CCC(C)OC(=O)[C@H](C)NP(=O)(N[C@@H](C)C(=O)OC(C)CC)OC[C@H]1O[C@@H](n2cnc3c(OC)nc(N)nc32)[C@](C)(O)[C@@H]1O (mixture of isomers) , please.
Completion: > 100 µM

Prompt: Which measured CC50 at 72 h value corresponds to COc1nc(N)nc2c1ncn2[C@@H]1O[C@H](COP(=O)(N[C@@H](C)C(=O)OC2CCC2)N[C@@H](C)C(=O)OC2CCC2)[C@@H](O)[C@@]1(C)O (mixture of isomers) ?
Completion: > 100 µM

---

Assay: Cytotoxicity against human HuH7 cells after 3 days
Format: cell-based, Huh-7
For each entry below, report its CC50 at 72 h value.

Prompt: Which value of CC50 at 72 h has been reported for CCOc1nc(N)nc2c1ncn2[C@@H]1O[C@H](COP(=O)(N[C@@H](C)C(=O)OCC(C)(C)C)N[C@@H](C)C(=O)OCC(C)(C)C)[C@@H](O)[C@@]1(C)O (mixture of isomers) in the records?
Completion: 72 µM

Prompt: Which CC50 at 72 h value belongs to COC(=O)C[C@H](NP(=O)(N[C@@H](CC(=O)OC)C(=O)OC)OC[C@H]1O[C@@H](n2cnc3c(OC)nc(N)nc32)[C@](C)(O)[C@@H]1O)C(=O)OC (mixture of isomers) ?
Completion: > 100 µM

Prompt: Fill in: CC50 at 72 h of COc1nc(N)nc2c1ncn2[C@@H]1O[C@H](COP(=O)(NCC(=O)OCC(C)(C)C)NCC(=O)OCC(C)(C)C)[C@@H](O)[C@@]1(C)O (mixture of isomers) is ___
Completion: > 100 µM

---

Would you kindly list CC50 at 72 h for each of these molecules?
Experiment: Cytotoxicity against human HuH7 cells after 3 days
Assay type: cell-based, Huh-7

Prompt: For the molecule shown here, COc1nc(N)nc2c1ncn2[C@@H]1O[C@H](COP(=O)(N[C@H](C(=O)OC2CCCCC2)C(C)C)N[C@H](C(=O)OC2CCCCC2)C(C)C)[C@@H](O)[C@@]1(C)O (mixture of isomers) , give the reported CC50 at 72 h.
Completion: 20 µM

Prompt: Which measured CC50 at 72 h value corresponds to COc1nc(N)nc2c1ncn2[C@@H]1O[C@H](COP(=O)(N[C@H](C(=O)OCC(C)(C)C)C(C)C)N[C@H](C(=O)OCC(C)(C)C)C(C)C)[C@@H](O)[C@@]1(C)O (mixture of isomers) ?
Completion: 32 µM

Prompt: Please look up its CC50 at 72 h: COc1nc(N)nc2c1ncn2[C@@H]1O[C@H](COP(=O)(N[C@@H](C)C(=O)OCC(C)C)N[C@@H](C)C(=O)OCC(C)C)[C@@H](O)[C@@]1(C)O (mixture of isomers)
Completion: > 100 µM

Prompt: Form field: reported CC50 at 72 h of COc1nc(N)nc2c1ncn2[C@@H]1O[C@H](COP(=O)(N[C@@H](C)C(=O)OC(C)C)N[C@@H](C)C(=O)OC(C)C)[C@@H](O)[C@@]1(C)O (mixture of isomers)
Completion: > 100 µM

Prompt: Data request, read-out CC50 at 72 h, for CC[C@H](C)[C@H](NP(=O)(N[C@H](C(=O)OCc1ccccc1)[C@@H](C)CC)OC[C@H]1O[C@@H](n2cnc3c(OC)nc(N)nc32)[C@](C)(O)[C@@H]1O)C(=O)OCc1ccccc1 (mixture of isomers)
Completion: 24 µM

---

Experiment: Cytotoxicity against human HuH7 cells after 3 days
Type: cell-based, Huh-7
MEASURED PARAMETER: CC50 at 72 h

Prompt: Requested read-out: CC50 at 72 h. Entry: CC[C@H](C)[C@H](NP(=O)(N[C@H](C(=O)OC)[C@@H](C)CC)OC[C@H]1O[C@@H](n2cnc3c(OC)nc(N)nc32)[C@](C)(O)[C@@H]1O)C(=O)OC (mixture of isomers)
Completion: > 100 µM

Prompt: Which CC50 at 72 h value is on record for COc1nc(N)nc2c1ncn2[C@@H]1O[C@H](COP(=O)(N[C@@H](C)C(=O)OCC(C)(C)C)N[C@@H](C)C(=O)OC2CCCCC2)[C@@H](O)[C@@]1(C)O (mixture of isomers) ?
Completion: > 100 µM

Prompt: May I ask what CC50 at 72 h has been recorded for CCOc1nc(N)nc2c1ncn2[C@@H]1O[C@H](COP(=O)(N[C@@H](C)C(=O)OCc2ccccc2)N[C@@H](C)C(=O)OCc2ccccc2)[C@@H](O)[C@@]1(C)O (mixture of isomers) ?
Completion: 62 µM

---

Exercise: for every item that follows, state its recorded EC90.
Tested on: Hepatitis C virus
Assay: Antiviral activity against Hepatitis C virus subtype 1b Con1 infected in human Huh7 cells assessed as inhibition of HCV replicon-encoded Renilla luciferase reporter activity after 72 hrs by HCV replicon assay
Format: functional, organism-based, Hepacivirus hominis
Details: Con1, Huh-7, 72 h
The reply should contain only the number, in nM.

Prompt: Item under review: COc1nc(N)nc2c1ncn2[C@@H]1O[C@H](COP(=O)(N[C@@H](CCSC)C(=O)OCc2ccccc2)N[C@@H](CCSC)C(=O)OCc2ccccc2)[C@@H](O)[C@@]1(C)O (mixture of isomers) . Reported EC90?
Completion: 770

Prompt: So what does the record say about EC90 for CCCCCNP(=O)(N[C@@H](C)C(=O)OCC(C)(C)C)OC[C@H]1O[C@@H](n2cnc3c(OC)nc(N)nc32)[C@](C)(O)[C@@H]1O (mixture of isomers) ?
Completion: 520

Prompt: GET /values?readout=EC90&item= COc1nc(N)nc2c1ncn2[C@@H]1O[C@H](COP(=O)(N2CCC[C@H]2C(=O)OCC(C)(C)C)N2CCC[C@H]2C(=O)OCC(C)(C)C)[C@@H](O)[C@@]1(C)O (mixture of isomers)
Completion: 2000

Prompt: Request the reported EC90 associated with COc1nc(N)nc2c1ncn2[C@@H]1O[C@H](COP(=O)(Nc2ccccc2)N[C@@H](C)C(=O)OCC(C)(C)C)[C@@H](O)[C@@]1(C)O (mixture of isomers)
Completion: 820

Prompt: Query: EC90; subject: COc1nc(N)nc2c1ncn2[C@@H]1O[C@H](COP(=O)(N[C@@H](C)C(=O)OCC(C)C)N[C@@H](C)C(=O)OCC(C)C)[C@@H](O)[C@@]1(C)O (mixture of isomers)
Completion: 260

Prompt: Suppose we examine the compound COc1nc(N)nc2c1ncn2[C@@H]1O[C@H](COP(=O)(N[C@@H](C)C(=O)OCC(C)(C)C)N2CCCC2)[C@@H](O)[C@@]1(C)O (mixture of isomers) ; what EC90 value has been reported?
Completion: 4000

Prompt: What value of EC90 has been reported for the following compound? COc1nc(N)nc2c1ncn2[C@@H]1O[C@H](COP(=O)(N[C@@H](C)C(=O)OCc2ccccc2)N[C@@H](C)C(=O)OCC(C)(C)C)[C@@H](O)[C@@]1(C)O (mixture of isomers)
Completion: 400

Prompt: Given the entry CC[C@H](C)[C@H](NP(=O)(N[C@H](C(=O)OCc1ccccc1)[C@@H](C)CC)OC[C@H]1O[C@@H](n2cnc3c(OC)nc(N)nc32)[C@](C)(O)[C@@H]1O)C(=O)OCc1ccccc1 (mixture of isomers) , report its measured EC90.
Completion: 1560

Prompt: Fill blank: measured EC90 of the compound COc1nc(N)nc2c1ncn2[C@@H]1O[C@H](COP(=O)(N[C@@H](CC(=O)OCc2ccccc2)C(=O)OCc2ccccc2)N[C@@H](CC(=O)OCc2ccccc2)C(=O)OCc2ccccc2)[C@@H](O)[C@@]1(C)O (mixture of isomers) is ____.
Completion: 1900

Prompt: Which measured EC90 value corresponds to CCC(C)OC(=O)[C@H](C)NP(=O)(N[C@@H](C)C(=O)OC(C)CC)OC[C@H]1O[C@@H](n2cnc3c(OC)nc(N)nc32)[C@](C)(O)[C@@H]1O (mixture of isomers) ?
Completion: 530

Prompt: // returns reported EC90 for input COc1nc(N)nc2c1ncn2[C@@H]1O[C@H](COP(=O)(N[C@@H](C)C(=O)OC2CCC2)N[C@@H](C)C(=O)OC2CCC2)[C@@H](O)[C@@]1(C)O (mixture of isomers)
Completion: 800

Prompt: EC90 for COc1nc(N)nc2c1ncn2[C@@H]1O[C@H](COP(=O)(N[C@@H](C)C(=O)OC(C)C)N[C@@H](C)C(=O)OC(C)C)[C@@H](O)[C@@]1(C)O (mixture of isomers) ?
Completion: 2100

Prompt: Give its EC90 value. Item: COc1nc(N)nc2c1ncn2[C@@H]1O[C@H](COP(=O)(N[C@@H](CCSC)C(=O)OC2CCCCC2)N[C@@H](CCSC)C(=O)OC2CCCCC2)[C@@H](O)[C@@]1(C)O (mixture of isomers)
Completion: 2600

Prompt: I have this compound here, COc1nc(N)nc2c1ncn2[C@@H]1O[C@H](COP(=O)(N[C@@H](C)C(=O)OCc2ccccc2)N[C@@H](C)C(=O)OCc2ccccc2)[C@@H](O)[C@@]1(C)O (mixture of isomers) , and I need its recorded EC90.
Completion: 1600

Prompt: # input compound: COc1nc(N)nc2c1ncn2[C@@H]1O[C@H](COP(=O)(N[C@@H](C)C(=O)OC2CCCCC2)N[C@@H](C)C(=O)OC2CCCC2)[C@@H](O)[C@@]1(C)O (mixture of isomers) ; wanted: its EC90
Completion: 160

Prompt: Can you share its EC90? I mean this compound: COc1nc(N)nc2c1ncn2[C@@H]1O[C@H](COP(=O)(N[C@H](C(=O)OCC(C)(C)C)C(C)C)N[C@H](C(=O)OCC(C)(C)C)C(C)C)[C@@H](O)[C@@]1(C)O (mixture of isomers)
Completion: 2500

Prompt: Any idea what EC90 was measured for COc1nc(N)nc2c1ncn2[C@@H]1O[C@H](COP(=O)(N[C@H](C(=O)N[C@@H](C)C(=O)OCC(C)(C)C)C(C)C)N[C@H](C(=O)N[C@@H](C)C(=O)OCC(C)(C)C)C(C)C)[C@@H](O)[C@@]1(C)O (mixture of isomers) ?
Completion: 2400

Prompt: Which measured EC90 value corresponds to COc1nc(N)nc2c1ncn2[C@@H]1O[C@H](CO)[C@@H](O)[C@@]1(C)O [BETA-2'-C-METHYL-6-O-METHYL GUANOSINE] ?
Completion: 19400

Prompt: Entry CCOc1nc(N)nc2c1ncn2[C@@H]1O[C@H](COP(=O)(N[C@@H](C)C(=O)OC2CCCCC2)N[C@@H](C)C(=O)OC2CCCCC2)[C@@H](O)[C@@]1(C)O (mixture of isomers) : reported EC90 = ?
Completion: 150

# credit: ChEMBL document CHEMBL2150978
